Experiment: Measurement of solubility in water (HPLC, saturated solution)
Format: physicochemical
Settings: thermodynamic from solid
Experimental readout: solubility (mg/mL)

- Molecule: "CN(C)CC(c1ccc(OP(=O)(O)O)cc1)C1(O)CCCCC1 (stereo not shown) [ODV phosphate]"
  Numeric result: 313
